tgt: Protein Mdm4 (Homo sapiens) + E3 ubiquitin-protein ligase Mdm2 (Homo sapiens) (UniProt O15151+Q00987)
Sequence (O15151 whole entry, looked up): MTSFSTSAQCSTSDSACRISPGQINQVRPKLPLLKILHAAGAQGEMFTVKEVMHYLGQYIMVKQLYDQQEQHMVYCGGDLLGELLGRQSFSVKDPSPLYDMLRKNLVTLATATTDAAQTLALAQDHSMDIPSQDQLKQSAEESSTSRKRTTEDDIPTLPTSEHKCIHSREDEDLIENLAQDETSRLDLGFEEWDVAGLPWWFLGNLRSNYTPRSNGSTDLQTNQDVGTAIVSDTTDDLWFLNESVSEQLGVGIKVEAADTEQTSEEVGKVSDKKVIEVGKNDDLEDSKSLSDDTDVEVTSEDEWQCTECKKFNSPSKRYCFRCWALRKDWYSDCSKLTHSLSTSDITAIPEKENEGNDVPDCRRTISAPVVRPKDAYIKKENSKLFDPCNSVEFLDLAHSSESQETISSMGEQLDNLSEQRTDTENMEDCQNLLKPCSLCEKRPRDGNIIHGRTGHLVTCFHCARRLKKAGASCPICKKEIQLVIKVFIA
Sequence (Q00987 whole entry, looked up): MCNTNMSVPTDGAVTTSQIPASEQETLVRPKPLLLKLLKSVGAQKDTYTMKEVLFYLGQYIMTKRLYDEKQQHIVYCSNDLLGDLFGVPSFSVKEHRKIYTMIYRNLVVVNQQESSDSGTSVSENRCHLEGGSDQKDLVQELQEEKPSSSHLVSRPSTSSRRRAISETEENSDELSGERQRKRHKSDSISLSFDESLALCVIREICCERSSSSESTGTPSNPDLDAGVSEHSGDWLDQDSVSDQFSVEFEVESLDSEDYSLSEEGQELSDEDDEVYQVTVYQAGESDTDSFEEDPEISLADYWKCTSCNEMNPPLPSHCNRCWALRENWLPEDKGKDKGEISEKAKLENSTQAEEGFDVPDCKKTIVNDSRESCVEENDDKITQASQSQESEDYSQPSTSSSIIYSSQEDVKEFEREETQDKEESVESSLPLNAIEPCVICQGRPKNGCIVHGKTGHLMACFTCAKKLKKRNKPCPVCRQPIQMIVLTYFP
experiment: Mdm2-MdmX complex disruptors, retested hits, confirmation, luminescence, single concentration (AID 489028)
test_context: Mdm2-MdmX binding, luminescent assay; at 8 µM; active compounds read high
Screen size: about 10,000 compounds; about 5,600 (56%) were called active. The set was probably picked from earlier hits. These entries were drawn from the full list.
assay_readout: inhibition (%)
Supply the numeric figure in %, leaving out any unit text.

The examples below pair each entry with its known result.
Cc1ccccc1OCCOc1ccc([N+](=O)[O-])cc1/C=N/n1cnnc1 : 58.2
O=C(NC(=S)Nc1ccc2oc(=O)ccc2c1)c1ccc(-c2cccc(Cl)c2Cl)o1 : 34.5
CCCC(=O)Nc1nc2ccc(NC(=O)c3cccnc3)cc2s1 : 48.4
N=c1c2c(-c3ccccc3)c(-c3ccccc3)n(Cc3ccccc3)c2ncn1CCCO : 62.9

## Task For the compound shown here, `CC(C)(C)OC(=O)N1CCC(NC(=O)c2[nH]cnc2C(=O)N[C@@H](Cc2ccccc2)C(=O)OCc2ccccc2)CC1` , give the reported inhibition.
## Result -8

## Task Please look up its inhibition: OC(CNCC1CCCO1)Cn1c2ccc(Br)cc2c2cc(Br)ccc21 (stereo not given)
## Result 38

## Task What does the record list as inhibition for `N#Cc1c(NC(=O)CSc2nc3ccccc3c(=O)n2Cc2ccco2)sc2c1CCCC2` ?
## Result 36.7

## Task Would you mind telling me what inhibition value was observed for `CCOC(=O)c1ccc(NC(=O)c2c(NCc3ccccc3)[nH]c(=O)[nH]c2=O)cc1` ?
## Result 12.4

## Task I have this compound here, `CCOc1cc2[nH]c(=S)n(Cc3ccc(C(=O)N4CCN(C)CC4)cc3)c(=O)c2cc1OCC` , and I need its recorded inhibition.
## Result -2.8

## Task Find the recorded inhibition belonging to `C[C@@H]1C[C@@H]2O[C@H]2/C=C\C=C\C(=O)Cc2c(Cl)c(O)cc(O)c2C(=O)O1` and report it.
## Result 54.2

## Task Which inhibition reading was recorded for the compound `Cc1cc(Nc2cc(N3CCN(C)CC3)nc(Sc3ccc(NC(=O)C4CC4)cc3)n2)n[nH]1` ?
## Result 82

## Task Query (compound): `Cc1ccc2nc(-c3ccc(Br)cc3)cn2c1` ; field requested: inhibition
## Result 53.3

## Task So what does the record say about inhibition for `CCCn1nc(C(=O)Nc2ccc3nc(C)sc3c2)c2ccccc2c1=O` ?
## Result 24.9

## Task Given the compound CCCCn1ccnc1C(=O)c1cccc(S(=O)(=O)N2c3ccccc3CC2C)c1 (stereo not given) , what is its reported inhibition?
## Result 9.35

* * *

Quick reference: inhibition of the listed items.
tgt: Protein Mdm4 (Homo sapiens) + E3 ubiquitin-protein ligase Mdm2 (Homo sapiens) (UniProt O15151+Q00987)
experiment: Mdm2-MdmX complex disruptors, retested hits, confirmation, luminescence, single concentration (AID 489028)
test_context: Mdm2-MdmX binding, luminescent assay; at 8 µM; active compounds read high
About 5,600 (56%) of roughly 10,000 compounds were called active. The set was probably picked from earlier hits. The list is a sample of the results.
Value expressed in %; do not type the unit.

Example entries begin here.
Cc1cccc(NC(=O)Nc2cccc(Oc3c(F)c(F)c(F)c(F)c3F)c2)c1 : 73
COc1cccc(-c2nnc(NC(=O)c3ccc(S(=O)(=O)N(CC(C)C)CC(C)C)cc3)o2)c1 : 52.3
Cc1cccc(CN2CCC(CNC(=O)Nc3ccc(F)c(Cl)c3)CC2)c1 : 36
O=C(CCCN1C(=O)/C(=C/c2ccccc2)SC1=S)Nc1ccc(O)cc1 : 93.9
Cc1ccsc1C(=O)OCC(=O)c1cc(C)n(CC2CCCO2)c1C (stereo not given) : 94.5
Cc1cc(C(=O)CCl)c(C)n1CC1COc2ccccc2O1 (stereo not given) : 15.6
COc1ccc(C(=O)/C=C/Nc2ccccn2)cc1 : 25.4
O=C(/C=C/c1ccc(OCc2c(F)cccc2Cl)cc1)N1CCOCC1 : 66.7

## Task Which inhibition is reported for this compound? `COc1cc(/C=N/NC(=O)Nc2ccccc2)ccc1OCCOc1ccccc1C`
## Result 72.8

## Task I have this compound here, `CC1(C)CCSC(/C=C/c2ccccc2)=N1` , and I need its recorded inhibition.
## Result 68

## Task # lookup: inhibition of `O=C(CCCN1C(=O)/C(=C/c2cccs2)SC1=S)Nc1ccc(O)cc1`
## Result 61.5

## Task What does the record list as inhibition for `CC(=O)/C(=N\Nc1ccc(Cl)cc1Cl)Sc1cccc2cccnc12` ?
## Result 63

## Task Recorded inhibition for `COc1cc(NC(=O)c2cncc(-c3ccc(C#N)cc3)c2)cc(C(=O)Nc2cccc(C(F)(F)F)c2)c1` , please?
## Result 55.5

## Task So what's the measured inhibition for this one? `Oc1ccc(N=Nc2nccs2)c(O)c1`
## Result 35

## Task Suppose we examine the compound `N#Cc1ccc(C(=O)Nc2cccc3cccnc23)c(F)c1` ; what inhibition value has been reported?
## Result 1.3

Provenance of the data: PubChem BioAssay AID489028
